The entries below are paired with their reported EC50.
Biological target: CFTR ΔF508 (Homo sapiens, UniProt P13569, DEL508-508)
Construct: bronchial epithelial cells isolated from CF patients homozygous for the CFTR ΔF508 mutation; McGill University; Asterand; University of North Carolina hAEC-CF; host or cells: primary human bronchial epithelial cells from CF patients homozygous for ΔF508, differentiated at air-liquid interface
Sequence (P13569 with tags, fused parts or gaps DEL508-508): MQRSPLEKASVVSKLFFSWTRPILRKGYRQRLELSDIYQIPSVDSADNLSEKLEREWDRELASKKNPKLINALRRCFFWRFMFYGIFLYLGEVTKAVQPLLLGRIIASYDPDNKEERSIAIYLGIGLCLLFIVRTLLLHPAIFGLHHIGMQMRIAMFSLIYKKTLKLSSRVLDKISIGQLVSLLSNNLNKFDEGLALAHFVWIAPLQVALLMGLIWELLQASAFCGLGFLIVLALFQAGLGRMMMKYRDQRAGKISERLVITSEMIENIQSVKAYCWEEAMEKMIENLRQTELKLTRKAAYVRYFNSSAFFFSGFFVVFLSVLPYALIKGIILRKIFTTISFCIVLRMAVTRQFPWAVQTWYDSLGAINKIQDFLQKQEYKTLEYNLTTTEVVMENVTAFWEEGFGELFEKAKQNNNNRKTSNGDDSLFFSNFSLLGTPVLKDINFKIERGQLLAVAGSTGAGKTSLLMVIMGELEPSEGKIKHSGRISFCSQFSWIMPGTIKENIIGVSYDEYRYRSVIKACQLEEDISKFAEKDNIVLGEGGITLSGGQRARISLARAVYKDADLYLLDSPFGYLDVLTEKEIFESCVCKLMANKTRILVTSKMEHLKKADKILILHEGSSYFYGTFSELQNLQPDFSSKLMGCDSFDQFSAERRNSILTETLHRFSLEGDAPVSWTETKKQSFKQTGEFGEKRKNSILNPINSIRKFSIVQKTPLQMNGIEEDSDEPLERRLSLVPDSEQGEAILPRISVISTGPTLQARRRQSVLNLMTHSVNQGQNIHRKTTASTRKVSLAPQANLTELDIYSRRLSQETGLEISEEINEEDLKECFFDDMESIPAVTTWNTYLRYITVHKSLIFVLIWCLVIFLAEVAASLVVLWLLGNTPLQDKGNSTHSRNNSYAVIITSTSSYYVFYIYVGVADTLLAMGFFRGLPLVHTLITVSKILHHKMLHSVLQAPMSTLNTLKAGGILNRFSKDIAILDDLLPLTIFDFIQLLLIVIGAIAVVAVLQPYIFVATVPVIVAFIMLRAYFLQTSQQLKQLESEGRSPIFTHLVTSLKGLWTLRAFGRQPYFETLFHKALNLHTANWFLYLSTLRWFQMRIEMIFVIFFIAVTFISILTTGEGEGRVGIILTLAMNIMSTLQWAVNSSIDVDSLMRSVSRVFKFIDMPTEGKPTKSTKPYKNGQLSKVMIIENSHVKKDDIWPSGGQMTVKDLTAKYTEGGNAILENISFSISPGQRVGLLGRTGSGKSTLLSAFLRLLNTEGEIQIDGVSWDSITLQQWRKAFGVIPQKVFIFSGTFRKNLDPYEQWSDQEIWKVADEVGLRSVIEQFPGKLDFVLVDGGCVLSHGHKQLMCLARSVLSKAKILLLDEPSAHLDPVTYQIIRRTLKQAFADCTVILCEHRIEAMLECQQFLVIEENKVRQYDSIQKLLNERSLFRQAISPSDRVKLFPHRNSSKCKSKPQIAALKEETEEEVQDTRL
Assay: Chronic TECC assay, primary bronchial epithelial cells of CF patients homozygous for CFTR ΔF508 (corrector, co-corrector and potentiator)
Format: cell-based
readout-type: EC50

mol=CS(=O)(=O)NC(=O)c1cc(N2CCC(CCN3CCOCC3)CC2)c2c(C3CCC3)nn(-c3ccccc3)c2n1 value_measured="10 nM"
mol=CS(=O)(=O)NC(=O)c1cc(N2CCC(N3CCCCC3)CC2)c2c(C3CCC3)nn(-c3ccccc3)c2n1 value_measured="200 nM"
mol=CS(=O)(=O)NC(=O)c1cc(N2CCC(N3CCOCC3)CC2)c2c(C3CCC3)nn(-c3ccccc3)c2n1 value_measured="96 nM"

====

The entries below are paired with their reported EC50.
Biological target: ΔF508-CFTR (Homo sapiens, UniProt P13569, DEL508-508)
Construct: host or cells: CFBE41o-, doxycycline-inducible
Sequence (P13569 with tags, fused parts or gaps DEL508-508): as above
Experiment: CFTR cell surface levels using HRP-tagged ΔF508-CFTR expressing CFBE cells, in the presence of a co-corrector
Type: cell-based
Conditions: HRP-tagged ΔF508-CFTR CFBE cells, in the presence of 3 μM co-corrector; read-out: EC50
readout-type: EC50 (nM)

molecule=COCC1CCN(c2cc(C(=O)NS(=O)(=O)C3CCNCC3)nc3c2c(C2CCC2)nn3-c2ccccc2)CC1 target_system="ΔF508-CFTR (Homo sapiens, UniProt P13569, DEL508-508)" value_measured=361
molecule=CC(C)c1nn(-c2cccc(N(C)C)c2)c2nc(C(=O)NS(C)(=O)=O)cc(-c3ccc(N4CCC(C#N)CC4)nc3)c12 target_system="ΔF508-CFTR (Homo sapiens, UniProt P13569, DEL508-508)" value_measured=425
molecule=CCOCC1(F)CCN(c2cc(C(=O)NS(C)(=O)=O)nc3c2c(C(C)C)nn3-c2ccc(F)cc2)CC1 target_system="ΔF508-CFTR (Homo sapiens, UniProt P13569, DEL508-508)" value_measured=207
molecule="O=C(NS(=O)(=O)C1CCOC1)c1cc(-c2ccc(CN3CCOCC3)cc2)c2c(OC3CCC3)nn(C3CCCCC3)c2n1 (stereo not shown)" target_system="ΔF508-CFTR (Homo sapiens, UniProt P13569, DEL508-508)" value_measured=270
molecule=CC(C)c1nn(C2CCCCC2)c2nc(C(=O)NS(C)(=O)=O)cc(-c3ccc(N(C)C4CCOCC4)nc3)c12 target_system="ΔF508-CFTR (Homo sapiens, UniProt P13569, DEL508-508)" value_measured=312
molecule=CN(C)S(=O)(=O)NC(=O)c1cc(C2CCN(CCC(F)(F)F)CC2)c2c(C3CCC3)nn(-c3ccc(F)cc3)c2n1 target_system="ΔF508-CFTR (Homo sapiens, UniProt P13569, DEL508-508)" value_measured=300
molecule=COCC1CCN(c2cc(C(=O)N3CCCCS3(=O)=O)nc3c2c(C2CCC2)nn3-c2ccccc2)CC1 target_system="ΔF508-CFTR (Homo sapiens, UniProt P13569, DEL508-508)" value_measured=257
